test: yeast display, Sf9 membrane polyspecificity reagent, FACS + sequencing; frameworks hold sequencing errors
parameter: polyreactivity (PSR sort gate)

// below: answered sequences
residue_string	polyreactivity (PSR sort gate)
QVQLVESGGGLVQAGGSLRLSCAASGFIFYAYAMGWYRPAPGKERELVAAISQRGGITYYADSVKGRFTISRDNAKNTVYLQMNRLKPEDTAVYYCNAGQRYYTSRYYYWGQGTQVTVSS	high polyreactivity
QVQLVDSGGGLVQAGGSLRLSCAASGRTFGYYAMGWYRQAPGKERELVAAISGSGGSTYYADSVKGRFTISRDNAKNTVYLQMNSLIPEDTAVYYCIVYPPYAMDYWGQGTQVTVSS	high polyreactivity
QVQLVESGGGLVQAGGSLRLSCAASGFICGYNAMGWYRQAPGKERELVASINWSGGRTYYADSVKGRFTISRDNAKITVYLQMNSLKPEHTAVYYCNADGSRRYNYWGQGTQVTVSS	low polyreactivity
QVQLVESGGGLVQAGGSLRLSCAASGSTFFSYAMGWYRQAPGKERELVAVITGSDGRTFYADSVKGRFTISRDNAKNTVYLQMNSLKPEDTAVYYCAADAVFRATRYDRSTSEDDYWGQGTQVTVSS	low polyreactivity
QVQLVESGGGLVQAGGSLRLSCAASGRTFWENAMGWYRQAPGKERELVAAISGDSGSTYYADSVKGRFTISRDNAKNTVYLQMNSLKPEDTAVYYCAADSDRDDSYPYYYWGQGTQVTVSS	low polyreactivity

Could you report polyreactivity (PSR sort gate) for every entry in the following list?
1. QVQLVESGGGLVQAGGSLRLSCAASGRIFHANAMGWYRQAPGKERELVAGISRNGGRTYYADSVKGRFTISRDNAKNTVYLQMNSLKPEDTAVYYCAARVWGSSQYYYWGQGTQVTVSS
2. QVQLVESGGGLVQAGGSLRLSCAASGFTFYKNTMGWYRQAPGNERELVAAISYRGGTYYADSVKGRFTISRDNAKTTVYLQMNSLKPEDTAVYYCNARYRGKYSSYGFWGHGTQVTVSS
3. QVQLVESGGGLVQAGGSLRLSCAASGSIFYYYAMGWYRQAPGKERELVAAINSGVSTYYADSVKGRFTISRDNAKNTVYLQMNSLKPEDTAVYYCAAPGHNLYGSWFSWTPDTYDYWGQGTQVTVSS
4. QVQLVESGGGLVQAGGSLRLSCAAAGSIFVWYVMGWYRQAHGKEMELVAAITWSAARTYYADSVKGRFTISRDNAKNTVYLLMNSLKPEDTAVYYCAADHVSYQPSSRIFDYWGQGTQVTVSS
5. QVQLQESGGGLVQAGGSLCLSCAASGTNFFDGHMGWYRQAPGKEREFVAAINPGGSAYYADSLKGRLPLAAITHTVYLQMNSLKPEDTAVYYCAAILFDVYGYYYWGQGTHVTVSS
6. QVQLEESGGGLLQAGGSLRLSCAASGRTLGGYTMGWYRPAPGKERELVSAITTGGSTNYADSVKGRFTISRDNAKNTVYLQMNSLKPEDTAVYFCATELVFDKRYWYDYWGQGSQVTVSS

high polyreactivity
high polyreactivity
low polyreactivity
low polyreactivity
low polyreactivity
low polyreactivity

Could you report polyreactivity (PSR sort gate) for every entry in the following list?
1. QVQLEDSGGGLVQAGGSLRLSCAASGSTWVYAMGWYRQAPGTERELVASITVSGGSTYYADSVKGRFTISRDNAKNTVYLQMNSLKPEDTAVYYCAAYDSYRKFKYWRQGTQVTVSS
2. QVQLVESGGGLVQAGGSLRLSCAASGRIFYANAMGWYRQAPGKERELVAAISSGGSTYYADSVKGRFTISRDNANNTVYLQMNSLKPEDTAVYYFAASTVGQTFSYYVDTYDYWGQGTQVTVSS

1. high polyreactivity
2. low polyreactivity

Could you report polyreactivity (PSR sort gate) for every entry in the following list?
1. QVQLLETGAGLVHAGGSLRLSCAAYGFIFRDYAMGCYRQAPGKERELVAAIYYSGGSTYYADSVKGRFTISRDNAKNTVYLQLNSLKPEDTAVYYCNAVNPYYAPTDRRVGYDYWGQGTQVTVSS
2. QVQLVESGGGLVQAGGSLRLSCAASGRTFWRNAMGWYRQAPGKERELVAAISSSGDRTYYADSVKGRFTISRDNANNTVYLQMNSLKPEDTAVYYCAADVRYSSRFYYWGQGTQVTVSS
3. QVQLVESGGGLVQAGGSLRLSCAASGRIFYYYVMGWYRQAPGKERELVAAISSRGGSTYYADSVKGRFTISRDNAKNTVYLQMNSLKPEDTAVYYCAAEYGSISLRYPYYWRYDYWGQGTQVTVSS
4. QVQLVESGGGLVQAGGSLRLSCAASGSTFTFYAMGWYRQAPGKQRELVATISSSGVSTSYADSVKGRFTISRDNAKNTVDLEMNSLKPEDTAVYYCNAGYRRRFIFDYWGQGTQVTVSS
5. QVQLVESGGGLVQAGGSLRLSCAATGFIFPLYAMGWYRQAPGKQSELVAAITWRGDTTSYADSVKGRFTISRDNAKNTVYLQMNSLKPVDPAVYYCAADSYRYRPGYGPVLYDYWGQGTQVTVSS
6. QVQLVESGGGIVQAGGSLRLSCAASGGIFDSYAMGWYRQAPGKERELVADITSGGSTNYADSVKGRFTISRDNAKNTVYLQMNSLKPEDTAVYYCAKEFYYSVGVNLGDSWGQGIQVTVSS
7. QVQLVESGGGLVQAGGRLRLSCAASGLIFPAYAMGWYRQAPGKERELVATITWRGGSTYYADSVKGRFTISRDNAKNTVYLQMNSLKPEDTAVDYCATRPRYYYFRYDYWGQGTQVTVSS

["high polyreactivity", "high polyreactivity", "high polyreactivity", "low polyreactivity", "high polyreactivity", "low polyreactivity", "high polyreactivity"]

Supply polyreactivity (PSR sort gate) value. Item: QLQLVESGGGLVQAGGSLRLRCAASGRIFVRYAMGWYRQEPGKERELVAAISTRGGSTYYADSVKGRFTISRDKAKNTVYLQMNSLKAEDTAVYYCASGPRPRPSDYWGQGTQVTGSS
high polyreactivity

* * *

test: yeast display, Sf9 membrane polyspecificity reagent, FACS + sequencing; frameworks hold sequencing errors
parameter: polyreactivity (PSR sort gate)

// below: answered sequences
residue_string	polyreactivity (PSR sort gate)
QVQLVESGGGLLQAGGSLRLSSAASGGTFPKYTKGWYRPAPGKEWELVAAITSRGGTYYADSVKGRFTISRDNAKNSVYLQMNSLKPEDTAVYYCAAEYSYSSYLWYDYWGQGTQVTVSS	high polyreactivity
QVQHVESGGGLVQAGGSLRLSCAASGRIIYRYAMGWYRQATGKERELVATITWSTTSTYYADSVKGRFTISREYAKNTVYLQMNSLKPVDTAVYYCAASIIPGFRRDPFGYWGQGTQVTVSS	low polyreactivity
QVQLVESGGRLVQAGGSLRLSCAASGFSFRGNAMGWYRQAPGKERELVATISRGGNTNYADSVKGRFTISRDNAKNTVYLQMNSLKPEDTAVYYCAAVSYIRSKVAYNYWGQGTQVTVSS	low polyreactivity
QVQLVESGGGLVQAGGSLRLSCAASGSIFGYYAMGWYRQAPGKEREFVAAISWSGGRTTYADSVKGRFTISRDNAKNTVYLQMNSLKPEDTAVYYCAAAARRKFYYWGQGTQVTVSS	high polyreactivity

Then there is this sequence:
Supply polyreactivity (PSR sort gate) value. Item: QVQLVESGGGLVQAGGSLRLSCAASGSTFSRYAMGWYRQAPGKERELVAAISSSGGSTYYADSVKGRFTISRDNAKNTVYLQMNSLKPEDTAVYYCAVAVNGVSRIKYYYWGQGTQVTVSS
high polyreactivity

* * *

test: yeast display, Sf9 membrane polyspecificity reagent, FACS + sequencing; frameworks hold sequencing errors
parameter: polyreactivity (PSR sort gate)

// below: answered sequences
residue_string	test_value
QVQLVESGGGLVHAGGPLRLSCAASGFTFGEYAMGWYRPAPGKERELVAAITWSVGSTYYADSVKGRFTISRDNAKNTVYLEMNSLKPEDTAVYYCAAVLNWSRYGYWGQGTQVTVSS	low polyreactivity
QVQLVESGGGLVQAGGSLRLSCAASGRTFAKYAMGWYRQAPGKERELVAAITSGGRTNYADSVKGRFTISRDNAKNTVYLQMNSLKPEDTAVYYCAARRYVVGYFQSKMDYWGQGTQVTVSS	high polyreactivity
QVQRVESGGGLVQAGGSLRLSCAASGSIFSIYAMGWNRQAPGKEMEFVAAIDSGTSTTYADSVKGRFTISRDNAKNTVYLQMNSLKPEDTAVYYCAAALYSDVAAVSTYGYYWGQGTQVTVSS	low polyreactivity
QVQLVESGGGLVQAGGSLRLSCAASGLPFRYNVMGWYRQAPGKETALGATISTSAGDTYYADSVKGRFTISRDNAKNTVYLQMNSLKPEDTAVYYCNAEAWYSVEYDDWGQGTQVTVSS	low polyreactivity

Then there is this sequence:
Supply polyreactivity (PSR sort gate) value. Item: QFQLVESGGGLVQAGVSLRLICAASVSTFGYNAMGWYRQAPGKERELVPANNGRGGGTYYADSVKGRFTISRDNAKNTVYLQINSLKPEDTAVYYCAKLRRAGTGRGSHVYRQSDYWGQGTQVTVSS
high polyreactivity
